// provenance: PubChem BioAssay (NCI)

TGI for assorted molecules
# Test system: T-47D breast
# protocol_notes: NCI tumour cell line growth inhibition, 48 h
Enter your answer as a number in µM; do not include the unit.

[
  {
    "molecule": "COC(=O)[C@]12CC[C@H]3CN(S(=O)(=O)c4ccc(C)cc4)[C@H]([C@H]31)[C@H](c1ccco1)N2S(=O)(=O)c1ccc(C)cc1",
    "TGI (µM)": 49.5
  }
]

Query :: Fill in the recorded TGI for this molecule, with T-47D breast as test system: CCCCCCCCCN=C(N)c1ccc(N2CCN(c3ccc(C(N)=NCCCCCCCCC)cc3)CC2)cc1
Result :: 11.8

Query :: Let us now turn to COc1ccccc1CNCCCN1C(=O)c2ccc3c4c(ccc(c24)C1=O)C(=O)N(CCCNCCCCNCCCN)C3=O
Result :: 0.49

Query :: Can you check CC(=O)NC1C(OCc2ccccc2)OC(CO)C(O)C1OCC(=O)NC(C(=O)NC(CCC(=O)NCCCCCC(=O)Nc1ccc2c(c1)CN1C(=O)c3ccccc3C1=N2)C(N)=O)C(C)C (stereo not given) next?
Result :: 68
